Entry source: paper PMC3285241

Test: in vivo
Settings: male, Sprague-Dawley, rat, plasma, iv, 1 mg/kg
reported metric: half-life

Please look up its half-life: CC(C)(C)CCN1CC2C(CNC(=O)c3cc(Cl)cc(Cl)c3)C2C1 (stereo not shown)
7 h

----------
Assay: in vitro
Conditions: rat, plasma, pH 7.4
reported metric: fraction unbound at 4 h
Output spec: single numeric token, no unit.

Please look up its fraction unbound at 4 h: CC(C)(C)CCN1CC2C(CNC(=O)c3cc(Cl)cc(Cl)c3)C2C1 (stereo not shown) [ML218]
0.091

----------
Assay: in vivo
Settings: male, Sprague-Dawley, rat, plasma, iv, 1 mg/kg
reported metric: MRT

Please look up its MRT: CC(C)(C)CCN1CC2C(CNC(=O)c3cc(Cl)cc(Cl)c3)C2C1 (stereo not shown) [ML218]
~7 h

----------
Target: P450 2D6 (Homo sapiens)
Sequence (P10635 whole entry): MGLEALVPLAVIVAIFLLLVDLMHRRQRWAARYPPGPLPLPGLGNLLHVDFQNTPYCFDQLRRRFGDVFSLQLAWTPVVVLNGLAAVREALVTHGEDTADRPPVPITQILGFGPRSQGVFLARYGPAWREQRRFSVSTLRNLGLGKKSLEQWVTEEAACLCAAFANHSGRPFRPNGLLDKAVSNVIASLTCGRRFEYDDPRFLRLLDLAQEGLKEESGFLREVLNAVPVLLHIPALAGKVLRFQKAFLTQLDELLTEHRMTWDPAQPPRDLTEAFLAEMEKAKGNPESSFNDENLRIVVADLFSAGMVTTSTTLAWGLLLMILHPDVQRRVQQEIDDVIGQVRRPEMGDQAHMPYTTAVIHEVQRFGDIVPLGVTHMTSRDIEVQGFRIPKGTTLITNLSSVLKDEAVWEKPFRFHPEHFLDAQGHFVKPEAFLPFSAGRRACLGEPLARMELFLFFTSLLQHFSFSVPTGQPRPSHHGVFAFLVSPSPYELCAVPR
reported metric: IC50 (nM)
The reply should be a number in nM, with the unit left off.

Please look up its IC50: CC(C)(C)CCN1CC2C(CNC(=O)c3cc(Cl)cc(Cl)c3)C2C1 (stereo not shown)
1700

----------
Assay: Plasma-brain exposure profile PK study
Format: in vivo
Details: male, Sprague-Dawley, rat, intraperitoneal, 10 mg/kg
reported metric: Kp
Output spec: single numeric token, no unit.

Please look up its Kp: CC(C)(C)CCN1CC2C(CNC(=O)c3cc(Cl)cc(Cl)c3)C2C1 (stereo not shown)
7.4

----------
Molecular target: Cav3.2 channel expressed in HEK293 cells (Homo sapiens, UniProt O95180)
Sequence (O95180 whole entry): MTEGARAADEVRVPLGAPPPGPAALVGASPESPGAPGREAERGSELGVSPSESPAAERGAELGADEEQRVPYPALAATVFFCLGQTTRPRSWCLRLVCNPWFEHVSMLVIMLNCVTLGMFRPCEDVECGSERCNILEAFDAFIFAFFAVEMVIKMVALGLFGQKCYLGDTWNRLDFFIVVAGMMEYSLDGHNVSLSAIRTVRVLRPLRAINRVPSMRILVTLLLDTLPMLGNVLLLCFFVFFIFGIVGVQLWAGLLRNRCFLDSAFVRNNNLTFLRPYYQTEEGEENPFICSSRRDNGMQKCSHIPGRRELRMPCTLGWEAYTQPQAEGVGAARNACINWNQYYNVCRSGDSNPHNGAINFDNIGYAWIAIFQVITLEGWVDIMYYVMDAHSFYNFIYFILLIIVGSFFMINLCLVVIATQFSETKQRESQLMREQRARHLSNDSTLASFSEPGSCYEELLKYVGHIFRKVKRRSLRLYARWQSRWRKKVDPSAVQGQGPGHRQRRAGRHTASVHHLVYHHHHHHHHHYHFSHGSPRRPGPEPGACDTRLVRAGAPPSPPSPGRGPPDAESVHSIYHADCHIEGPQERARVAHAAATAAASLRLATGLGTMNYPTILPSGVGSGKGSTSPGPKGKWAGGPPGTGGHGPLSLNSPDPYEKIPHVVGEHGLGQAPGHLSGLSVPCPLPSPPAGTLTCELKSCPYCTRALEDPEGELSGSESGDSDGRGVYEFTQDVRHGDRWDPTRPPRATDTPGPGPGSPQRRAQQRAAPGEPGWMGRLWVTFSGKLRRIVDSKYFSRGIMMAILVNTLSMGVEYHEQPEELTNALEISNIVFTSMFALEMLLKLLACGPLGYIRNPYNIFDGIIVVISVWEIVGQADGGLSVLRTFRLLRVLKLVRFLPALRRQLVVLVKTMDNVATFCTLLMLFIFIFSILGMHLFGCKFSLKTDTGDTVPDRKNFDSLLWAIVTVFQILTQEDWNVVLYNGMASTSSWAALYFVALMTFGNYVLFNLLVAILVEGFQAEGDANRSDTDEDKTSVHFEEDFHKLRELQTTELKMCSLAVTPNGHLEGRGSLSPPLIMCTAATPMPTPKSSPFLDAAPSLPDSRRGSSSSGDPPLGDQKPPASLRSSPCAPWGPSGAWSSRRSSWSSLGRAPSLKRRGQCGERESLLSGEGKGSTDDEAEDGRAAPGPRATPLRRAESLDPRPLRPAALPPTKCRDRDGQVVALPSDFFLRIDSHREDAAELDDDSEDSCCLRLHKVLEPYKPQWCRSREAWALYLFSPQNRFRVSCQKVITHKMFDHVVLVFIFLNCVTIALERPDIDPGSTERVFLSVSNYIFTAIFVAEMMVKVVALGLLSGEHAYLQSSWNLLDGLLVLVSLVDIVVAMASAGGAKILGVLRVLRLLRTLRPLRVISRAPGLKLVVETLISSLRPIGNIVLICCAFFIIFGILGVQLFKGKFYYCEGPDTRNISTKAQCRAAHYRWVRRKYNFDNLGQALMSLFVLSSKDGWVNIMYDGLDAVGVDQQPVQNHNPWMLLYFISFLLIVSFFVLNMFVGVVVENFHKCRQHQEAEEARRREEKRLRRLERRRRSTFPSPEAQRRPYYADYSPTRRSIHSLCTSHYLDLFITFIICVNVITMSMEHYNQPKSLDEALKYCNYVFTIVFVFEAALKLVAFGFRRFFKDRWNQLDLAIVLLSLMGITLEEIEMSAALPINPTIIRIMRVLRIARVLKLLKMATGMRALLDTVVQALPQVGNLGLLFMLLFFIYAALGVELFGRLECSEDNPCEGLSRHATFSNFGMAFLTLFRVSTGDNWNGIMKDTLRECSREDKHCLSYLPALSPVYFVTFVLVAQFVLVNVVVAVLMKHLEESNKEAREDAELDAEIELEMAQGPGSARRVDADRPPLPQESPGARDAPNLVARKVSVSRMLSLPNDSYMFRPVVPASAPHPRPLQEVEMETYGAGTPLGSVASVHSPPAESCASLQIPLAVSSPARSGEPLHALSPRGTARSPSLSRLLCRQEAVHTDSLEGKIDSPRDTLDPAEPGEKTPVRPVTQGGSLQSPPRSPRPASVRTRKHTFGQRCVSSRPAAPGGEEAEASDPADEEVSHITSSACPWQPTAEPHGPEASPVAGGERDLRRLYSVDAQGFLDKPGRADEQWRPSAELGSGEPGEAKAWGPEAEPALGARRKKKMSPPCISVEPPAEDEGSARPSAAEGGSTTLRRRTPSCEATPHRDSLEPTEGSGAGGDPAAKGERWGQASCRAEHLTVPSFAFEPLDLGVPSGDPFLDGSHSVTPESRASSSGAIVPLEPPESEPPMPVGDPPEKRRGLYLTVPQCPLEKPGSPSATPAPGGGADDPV
Experiment: T-type calcium channel cell-based FDSS Ca2+ flux
reported metric: pIC50
pIC50 is a log-scale quantity: -log10 of the concentration expressed in molar.

Please look up its pIC50: CC(C)(C)CCN1CC2C(CNC(=O)c3cc(Cl)cc(Cl)c3)C2C1 (stereo not shown)
6.82

----------
Test: in vitro
Settings: human, plasma, pH 7.4
reported metric: fraction unbound at 4 h
Output spec: single numeric token, no unit.

Please look up its fraction unbound at 4 h: CC(C)(C)CCN1CC2C(CNC(=O)c3cc(Cl)cc(Cl)c3)C2C1 (stereo not shown)
0.033

----------
Experiment: in vivo
Conditions: male, Sprague-Dawley, rat, plasma, iv, 1 mg/kg
reported metric: clearance (mL/min/kg)
The reply should be a number in mL/min/kg, with the unit left off.

Please look up its clearance: CC(C)(C)CCN1CC2C(CNC(=O)c3cc(Cl)cc(Cl)c3)C2C1 (stereo not shown)
56

----------
Experiment: in vitro
Conditions: rat, liver microsomes, pH 7.4
reported metric: CLint scaled at 1 μM
Phrase the answer as number then unit, nothing more needed.

Please look up its CLint scaled at 1 μM: CC(C)(C)CCN1CC2C(CNC(=O)c3cc(Cl)cc(Cl)c3)C2C1 (stereo not shown)
115 mL/min/kg

----------
Target: UniProtKB Q9P0X4
Sequence (Q9P0X4 whole entry, species assumed): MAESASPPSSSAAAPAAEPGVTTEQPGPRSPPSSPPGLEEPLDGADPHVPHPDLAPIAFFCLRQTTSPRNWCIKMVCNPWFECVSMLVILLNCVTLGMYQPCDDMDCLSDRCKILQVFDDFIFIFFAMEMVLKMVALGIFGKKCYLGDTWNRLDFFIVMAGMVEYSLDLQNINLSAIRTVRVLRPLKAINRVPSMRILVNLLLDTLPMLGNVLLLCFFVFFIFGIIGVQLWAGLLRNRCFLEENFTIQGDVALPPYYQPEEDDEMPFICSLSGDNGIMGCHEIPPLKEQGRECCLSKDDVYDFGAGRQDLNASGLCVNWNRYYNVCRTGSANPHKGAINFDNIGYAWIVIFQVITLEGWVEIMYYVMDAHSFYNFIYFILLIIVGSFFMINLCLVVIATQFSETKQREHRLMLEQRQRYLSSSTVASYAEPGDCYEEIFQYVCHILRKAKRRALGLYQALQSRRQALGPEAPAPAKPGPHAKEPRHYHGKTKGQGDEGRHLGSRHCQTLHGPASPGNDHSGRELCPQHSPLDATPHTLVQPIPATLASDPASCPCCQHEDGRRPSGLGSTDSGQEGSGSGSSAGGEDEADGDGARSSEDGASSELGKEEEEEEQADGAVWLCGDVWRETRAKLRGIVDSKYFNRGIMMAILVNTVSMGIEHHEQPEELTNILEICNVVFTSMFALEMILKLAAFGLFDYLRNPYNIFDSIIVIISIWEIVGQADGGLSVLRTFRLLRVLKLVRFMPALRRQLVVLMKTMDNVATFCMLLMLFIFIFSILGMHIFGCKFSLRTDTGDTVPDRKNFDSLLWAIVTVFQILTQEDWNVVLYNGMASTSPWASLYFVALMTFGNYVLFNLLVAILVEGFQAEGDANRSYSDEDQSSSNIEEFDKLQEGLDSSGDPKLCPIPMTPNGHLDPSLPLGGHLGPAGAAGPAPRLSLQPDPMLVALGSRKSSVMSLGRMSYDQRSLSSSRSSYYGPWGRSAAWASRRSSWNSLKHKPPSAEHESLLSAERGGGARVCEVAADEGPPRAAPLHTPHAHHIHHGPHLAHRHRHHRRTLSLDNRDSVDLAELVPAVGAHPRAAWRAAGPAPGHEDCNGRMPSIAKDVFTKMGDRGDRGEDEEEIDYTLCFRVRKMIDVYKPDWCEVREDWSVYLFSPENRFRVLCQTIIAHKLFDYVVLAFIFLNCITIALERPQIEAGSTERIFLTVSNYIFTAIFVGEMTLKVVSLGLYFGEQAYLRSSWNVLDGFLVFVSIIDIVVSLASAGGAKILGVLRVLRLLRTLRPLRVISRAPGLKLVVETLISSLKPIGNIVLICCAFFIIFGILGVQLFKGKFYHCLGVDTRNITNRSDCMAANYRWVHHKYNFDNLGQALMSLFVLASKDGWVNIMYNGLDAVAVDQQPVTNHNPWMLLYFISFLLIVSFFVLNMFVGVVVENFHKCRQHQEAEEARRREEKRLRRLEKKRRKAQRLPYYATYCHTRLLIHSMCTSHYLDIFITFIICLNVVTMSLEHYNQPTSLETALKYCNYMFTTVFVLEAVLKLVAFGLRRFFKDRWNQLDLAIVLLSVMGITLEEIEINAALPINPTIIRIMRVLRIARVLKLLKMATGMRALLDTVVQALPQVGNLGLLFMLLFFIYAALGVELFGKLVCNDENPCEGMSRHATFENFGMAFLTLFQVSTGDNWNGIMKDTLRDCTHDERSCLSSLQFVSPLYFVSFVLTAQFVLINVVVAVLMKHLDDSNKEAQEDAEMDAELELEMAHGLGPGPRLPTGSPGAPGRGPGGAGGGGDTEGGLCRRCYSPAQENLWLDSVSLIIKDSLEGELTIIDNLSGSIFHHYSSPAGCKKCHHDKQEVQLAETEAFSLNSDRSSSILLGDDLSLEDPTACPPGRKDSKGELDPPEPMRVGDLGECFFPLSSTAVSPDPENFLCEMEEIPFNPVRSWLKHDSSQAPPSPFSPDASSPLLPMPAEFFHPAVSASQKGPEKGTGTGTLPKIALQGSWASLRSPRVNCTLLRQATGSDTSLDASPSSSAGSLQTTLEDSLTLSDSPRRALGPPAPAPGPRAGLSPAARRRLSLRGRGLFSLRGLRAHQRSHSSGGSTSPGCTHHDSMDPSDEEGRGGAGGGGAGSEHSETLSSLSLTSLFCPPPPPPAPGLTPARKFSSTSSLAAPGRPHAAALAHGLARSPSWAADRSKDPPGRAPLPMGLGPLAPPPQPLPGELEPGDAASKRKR
Assay: Cav3.3 IonWorks Quattro population patch clamp electrophysiology
reported metric: pIC50
pIC50 is a log-scale quantity: -log10 of the concentration expressed in molar.

Please look up its pIC50: CC(C)(C)CCN1CC2C(CNC(=O)c3cc(Cl)cc(Cl)c3)C2C1 (stereo not shown) [ML218]
6.56

----------
Test: in vitro
Settings: human, liver microsomes, pH 7.4
reported metric: CLint scaled at 1 μM
Phrase the answer as number then unit, nothing more needed.

Please look up its CLint scaled at 1 μM: CC(C)(C)CCN1CC2C(CNC(=O)c3cc(Cl)cc(Cl)c3)C2C1 (stereo not shown) [ML218]
12.7 mL/min/kg
